# System: M14
# Protocol Text: NCI tumour cell line growth inhibition, 48 h
Active and inactive are the calls of the source. Cut-off read from the data, not from the text of the source: active = GI50 up to about 1.1 µM and inactive = higher.
This listing pairs molecules with measured GI50.

Here's what some known entries look like.
CC(C)(C)OC(=O)NCCCCC(N)C(N)=O (stereo not drawn) ... > 100 µM (inactive)
NC(=S)SCCC(=O)O ... > 100 µM (inactive)

GI50 measured on NC(=O)CC(Nc1ncc2c(n1)-c1ccccc1OC2)C(=O)O (stereo not drawn) = > 100 µM (inactive)

###

# Tested on: CCRF-CEM
# Protocol Text: NCI tumour cell line growth inhibition, 48 h
The source made the active and inactive calls. Cut-off read from the data, not from the text of the source: active = GI50 up to about 1.1 µM and inactive = higher.
Measured Metric: GI50

In the examples that follow, each entry is paired with its recorded GI50.
Cc1c(-c2ccccc2)nn2cc(-c3ccccc3)nnc12 ... 27.4 µM (inactive)
O=C(OCCN1CCCCC1)C(c1ccccc1)C1(O)CCSCC1 (stereo unspecified) ... > 100 µM (inactive)
COc1ccccc1NC(=O)C(=O)C(C(=O)c1ccccc1F)C1OC(=O)c2ccccc21 (stereo unspecified) ... 16.1 µM (inactive)

The reported GI50 of the compound COc1cc(C2S/C(=C/c3ccccc3)C(=O)N2c2cccc(Cl)c2)cc(OC)c1OC (stereo unspecified) was 25.6 µM (inactive)

Recorded GI50 (compound `NC(=O)c1cc2ccccc2c(/N=N/c2ccccc2)c1O` ): > 100 µM (inactive)

For record `COC(=O)/C=C\C(C#N)(C#N)/N=C/c1ccsc1` the listed GI50 is 0.216 µM (active)

###

# System: NCI-H226
# Protocol Text: NCI tumour cell line growth inhibition, 48 h
The source made the active and inactive calls. Cut-off read from the data, not from the text of the source: active = GI50 up to about 1.1 µM and inactive = higher.
Listed next: entries and their corresponding GI50.

Kindly note the recorded GI50 for `CC(C)C[C@H](NC(=O)CCc1ccccc1)B(O)O` , which is 1.62 µM (inactive)

Summary for this compound, `C1=N\CCN2CCN(CC/N=C\c3ccc(cc3)OCc3cccc(n3)COc3ccc/1cc3)CC2` : GI50 is > 50 µM (inactive)

Reported GI50 ( CC(/C(=N/NC(=O)C(N)=O)c1c(Cl)ccc(Cl)c1O)C1(O)C(=O)Nc2ccccc21 (stereo not given) ) = 29.3 µM (inactive)

GI50 in this record for O=C(CC1Sc2ccccc2NC1=O)Nc1ccccc1[N+](=O)[O-] (stereo not given) : > 100 µM (inactive)

Entry `COc1ccc(C(=O)C/C(=N/NC(N)=S)C(=O)Nc2ccccc2)cc1` , GI50 reported as > 100 µM (inactive)

Reported GI50 for `Cc1ccc(-n2nnc3c(NNc4ccccc4)n[nH]c(=O)c32)cc1` was 70 µM (inactive)

Item: `Cc1ccc(NC(=O)c2cc(S(=O)(=O)Nc3n[nH]c(=O)n3-c3ccccc3)c(S)cc2Cl)cc1` | GI50: > 100 µM (inactive)

According to the records, this compound `Cc1ccc2c(=O)c(C(=O)N(CCO)CCO)c[nH]c2n1` displays GI50 of > 100 µM (inactive)

Note to self: GI50 recorded for CC(Nc1ncc2c(n1)-c1ccccc1OC2)C(=O)O (stereo not given) was 61.7 µM (inactive)

Lab note: `COC(=O)CCC(=O)CC(=O)C(=O)Nc1c(Cl)cc([N+](=O)[O-])cc1Cl` gave GI50 of > 100 µM (inactive)

// sample `CC(C)(C)NNC(=O)/C(=C/c1ccc([N+](=O)[O-])cc1)NC(=O)c1ccccc1` , its GI50 was 24.2 µM (inactive)

So for `O=c1[nH]nc(Cc2ccc(Cl)cc2)n1/N=C/c1ccco1` , the logged GI50 turned out to be 84.5 µM (inactive)

GI50 measured on C=C[C@@]1(C)CC2(C=C(CO)C(O)O2)Oc2c1c(=O)oc1cccc(C)c21 (stereo not given in full) = 17.9 µM (inactive)

Reported GI50 of `CCCNc1[nH]c(C(C)=O)c(N)c1C(=S)Nc1ccccc1` : 21.7 µM (inactive)

Summary for this compound, `Cc1nn2c(=O)c([N+](=O)[O-])c(/C=C/c3ccc(F)cc3)nc2s1` : GI50 is 11.4 µM (inactive)

GI50 recorded for this compound, `c1ccc2c(c1)CCN2CCN1CCc2ccccc21` , is > 10 µM (inactive)

// GI50 lookup, compound = `C/C(=N\NC(=O)c1ccncc1)c1cccc(F)c1` , result: > 10 µM (inactive)

Briefly, GI50 measured for `NC(=O)c1cc2ccccc2c(/N=N/c2ccccc2)c1O` : > 100 µM (inactive)

# compound `COc1cc2ccn3c4cc(OC)c(OC)cc4cc3c2cc1OC` ; its GI50 = > 100 µM (inactive)

Lab note: measured GI50 of `COc1cccc(CCn2c(N)c(-c3cc(Cl)cc(Cl)c3)c3ccc([N+](=O)[O-])cc3c2=O)c1` was 3.67 µM (inactive)

###

# Tested on: KM12
# Protocol Text: NCI tumour cell line growth inhibition, 48 h
Calls of active or inactive are those of the source. Rule as the data show it: active = GI50 up to about 1.1 µM and inactive = higher. Starred links: 1 amine or outer side, 2 acyl side, 3 side chain; linkers in the order of their positions; H or OH if unused. Positions of bridges follow the written chain, without caps; N, C: chain ends. Non-standard residues stand in square brackets, D forms with d. Residues, ends and D or L forms follow the SMILES beside them. *: point of attachment. X40 = CC[C@H](C)[C@@H](N[*:1])[C@@H](O)CC(=O)[*:2]; NMeY = CN[C@@H](Cc1ccc(O)cc1)C(=O)O; dNMeL = CN[C@H](CC(C)C)C(=O)O; Hiv = CC(C)[C@H](O)C(=O)O; Pyruvoyl = CC(=O)C(=O)*
Form entry, call: pick from Yes (active), No (inactive)

Worked examples follow.
COc1cccc2c(=O)oc(-c3ccc(C(C)(C)C)cc3)nc12 ... No
COc1ccc(Nc2nc3c(N)cc(C(F)(F)F)cc3nc2-c2ccccc2)cc1 ... No
CCCC(O)c1cn(-c2cccc(S(=O)(=O)O)c2)nn1 (stereo unspecified) ... No

Query block: // param item: COc1nc2c(c(O)c(C)c(=O)n2OC2OCC(OC(C)=O)C(OC(C)=O)C2OC(C)=O)c(=O)n1C (stereo unspecified) ; yields the recorded call
Result block: No

Query block: Which result was noted for this molecule in the test: COc1c(OC2OC(CO)C(O)C(O)C2O)cc2c(c1OC)-c1ccc(OC)c(=O)cc1[C@@H](NC(C)=O)CC2 (stereo partly specified)
Result block: No

Query block: Short answer needed: outcome of this test for CCCCCCCCCCCCCCCCCCOCC(CCP(=O)(CP(=O)(O)O)Oc1ccccc1)OCCCCCCCCCCCCCCCCCC (stereo unspecified) ?
Result block: No

Query block: Field: outcome | Entry: `N#Cc1c(-c2ccc([N+](=O)[O-])cc2)cc(-c2ccc(Nc3ccnc4cc(Cl)ccc34)cc2)[nH]c1=O`
Result block: No

Query block: Recorded call for NC(=O)CC(Nc1ncc2c(n1)-c1ccccc1OC2)C(=O)O (stereo unspecified) ?
Result block: No

Query block: # lookup: test call for `CCOC(=O)c1ccc(/N=C/C=C(\Nc2ccc(C(=O)OCC)cc2)C23CC4CC(CC(C4)C2)C3)cc1`
Result block: No

Query block: Write down the call the test reported for this molecule. Item: CC[C@H](C)[C@H]1NC(=O)[C@@H](NC(=O)[C@@H](CC(C)C)N(C)C(=O)[C@@H]2CCCN2C(=O)C(C)=O)[C@@H](C)OC(=O)[C@H](Cc2ccc(OC)cc2)N(C)C(=O)[C@@H]2CCCN2C(=O)[C@H](CC(C)C)NC(=O)[C@H](C(C)C)OC(=O)C[C@@H]1O (Pyruvoyl-P[dNMeL]T[X40][Hiv]LP[NMeY](Me); ester 3-C)
Result block: Yes

Query block: Which outcome did this test record for the molecule `Cc1nc(N)sc1/N=N/c1ccccc1Br` ?
Result block: No

Query block: What outcome does the record of this test show for `COc1cccc(-c2c(C#N)c(N)nc3c2CCS(=O)(=O)c2ccc(C)cc2-3)c1` ?
Result block: No

Query block: In this assay, the call recorded for `CC(=O)Oc1ccccc1C(=O)C1c2cccc(O)c2C(=O)c2c(O)cccc21` was what?
Result block: Yes

###

# Test system: IGROV-1
# Protocol Text: NCI tumour cell line growth inhibition, 48 h
Active and inactive are the calls of the source. Cut-off read from the data, not from the text of the source: active = GI50 up to about 1.1 µM and inactive = higher.
Below: a set of entries, each annotated with reported GI50.

Known results for molecules:
Cc1c(C)c(S(=O)(=O)N(CCCN)OCCCN)c(C)c2c1OC(C)(C)C2 ... 22.9 µM (inactive)
COc1cccc(CCn2c(N)c(-c3cc(Cl)cc(Cl)c3)c3ccc([N+](=O)[O-])cc3c2=O)c1 ... 3.33 µM (inactive)
COc1c(O)c(C=O)c2c(O)c(-c3c(C)cc4c(C(C)C)c(OC)c(O)c(C=O)c4c3O)c(C)cc2c1C(C)C [6,6'-METHOXYGOSSYPOL] ... 5.47 µM (inactive)
Cc1cc2c(C(C)C)c(O)c(O)c(/C=N\CCO)c2c(O)c1-c1c(C)cc2c(C(C)C)c(O)c(O)c(/C=N/CCO)c2c1O ... 1.91 µM (inactive)
Clc1ccc(C2ON=C(c3ccccc3)N2C23CC4CC(CC(C4)C2)C3)c(Cl)c1 (centres undefined) ... > 10 µM (inactive)
COc1ccc(C(O)CNC(=O)c2ccccc2)cc1 (centres undefined) ... > 100 µM (inactive)
N#CC1CC2(C(=O)C1=O)c1ccccc1-c1ccccc12 (centres undefined) ... > 100 µM (inactive)
CCOP(=O)(Cc1ccc(CP(=O)(OCC)OCC)n1C)OCC ... > 100 µM (inactive)

Now for the molecule whose GI50 we want.
Item: CC1CC[C@]2(C(=O)O)CCC3(C)C(=C2[C@H]1C)C=CC1[C@@]2(C)CC[C@H](O)C(C)(C)C2CC[C@]13C (some centres undefined) | GI50: 27.9 µM (inactive)
